Could you please report measured melting point for the items listed next?
Give bare numbers, in °C.

The following compounds have reported results that may help.
CC(C)COC(=O)N[C@H](C(=O)N[C@H](CNC(=O)c1cccs1)C(C)C)C(C)C [Compound No. 1020] = 204.9
CC(C)[C@@H](CNC(=O)c1cc2ccccc2o1)NC(=O)C(C)(C)NC(=O)OC(C)(C)C = 140.5
CC(C)OC(=O)N[C@H](C(=O)N[C@H](CNC(=O)c1cccc(Cl)n1)C(C)C)C(C)C [Compound No. 953] = 204.9

Would you mind giving melting point for every compound in the list below?
1. CC(C)OC(=O)N[C@H](C(=O)N[C@H](CNC(=O)c1ccccc1Cl)C(C)C)C(C)C [Compound No. 196]
2. CC(C)OC(=O)N[C@@H](C)C(=O)N[C@H](CNC(=O)c1cc2ccccc2o1)C(C)C [Compound No. 599]
3. CC(C)OC(=O)N[C@H](C(=O)N[C@H](CNC(=O)c1cccc2onnc12)C(C)C)C(C)C [Compound No. 929]
4. C=COC(=O)N[C@H](C(=O)N[C@H](CNC(=O)c1cc2ccccc2o1)C(C)C)C(C)C [Compound No. 782]
5. CC[C@H](C)[C@@H](CNC(=O)c1ccc2ccccc2n1)NC(=O)[C@@H](NC(=O)OC)C(C)C [Compound No. 698]
6. CC(C)[C@@H](CNC(=O)c1cc2ccccc2o1)NC(=O)[C@H](C)NC(=O)OC(C)(C)C [Compound No. 601]
7. C#CC[C@H](NC(=O)OCC(C)C)C(=O)N[C@H](CNC(=O)c1ccc(C)cc1)C(C)C [Compound No. 76]

Data returned:
1. 196.8
2. 146.4
3. 242.9
4. 192.7
5. 174.6
6. 163.1
7. 215.1
